Measured values drawn from PubChem BioAssay for this set.

assay: viability loss with induced miR-34 in A549 – imaging, A549 dox-inducible miR-34, nuclei and caspase counts, primary screen (AID 1347080); conditions: A549 miR-34 inducible, Hoechst nuclei count, 48 h; active compounds read low; cell number ratio, induced over uninduced; further: test concentration not given here
So basically: is fold change under 1? Then true (1). Not under? Then false (0).

compound	class_label
Cn1nc(NC(=O)Cn2cc(-c3nccc4occc34)cn2)c2ccccc21	true (1)
N#CC(C#N)=C(N)/C(C#N)=C/c1ccc(O)cc1	true (1)
Oc1ccc(/C=C/c2ccc(/C=C/c3ccc(O)cc3)c(Br)c2)cc1	false (0)
C=CS(=O)(=O)NC1CCN(C(=O)CNc2cc(I)c(Cl)cc2OC)CC1	false (0)

[in] Given the entry `C=CCNC(=O)c1cccnc1-c1ccc(OC)c2ncccc12` , would its reported fold change be below 1?
[out] true (1)

[in] Given the entry C#CCC(Cc1cnc2nc(N)nc(N)c2n1)c1ccc(C(=O)NC(CCC(=O)O)C(=O)O)cc1 (stereo not drawn) , would its reported fold change be below 1?
[out] false (0)

[in] Given the entry `CCc1c(C(=O)NCCc2ccc(N3CCCCC3)cc2)[nH]c2ccc(Cl)cc12` , would its reported fold change be below 1?
[out] true (1)

[in] Given the entry `Cc1cn([C@H]2C[C@@H](N=[N+]=[N-])[C@@H](CO)O2)c(=O)[nH]c1=O` , would its reported fold change be below 1?
[out] false (0)

[in] Given the entry `C=CC[C@H](N)C(=O)O` , would its reported fold change be below 1?
[out] true (1)
